B1: recombinant CEACAM1 N-terminal domain, unglycosylated, 6xHis tagged [human] / IgSF (IgI3) domain of β protein, recombinant, biotinylated [modified: biotin, C-terminal] [Streptococcus agalactiae (GBS)] (parent complex)
chain 1: MAQLTTESMPFNVAEGKEVLLLVHNLPQQLFGYSWYKGERVDGNRQIVGYAIGTQQATPGPANSGRETIYPNASLLIQNVTQNDTGFYTLQVIKSDLVNEEATGQFHVY
chain 2: ANENNQQKIELTVSPENITVYEGEDVKFTVTAKSDSKTTLDFSDLLTKYNPSVSDRISTNYKTNTDNHKIAEITIKNLKLNESQTVTLKAKDDSGNVVEKTFTITVQKKEEKQLPSTGGS

Variants of: B1
Assay: flow cytometry on coated dynabeads; parent: 390; read off a plot
QUANTITY_NAME: response

// known answers, use as guide
{"columns": ["MUTANT_ID", "response"],
 "data": [
  ["chain 2 L46A", "~200 Geometric MFI"],
  ["chain 2 V53A", "~280 Geometric MFI"],
  ["chain 2 D55A", "~340 Geometric MFI"]
]}

Qu. Given the variant chain 2 F42A , write its reported response.
Ans. ~750 Geometric MFI

Value source: paper PMC8013792
